Data provenance is paper PMC5091859.

Measurement target: UniProt A0A3Q0KK01
Measurement type: pKd
Lab note: report pKd as minus log10 of the concentration in molar units, number only.

// map C[C@H]1CCC[C@H](C[C@H]2Cc3cc(O)cc(O)c3C(=O)O2)O1 to recorded pKd (system: UniProt A0A3Q0KK01)
7.20
